ASSAY OVERVIEW: Metabolic stability in pre-warmed pooled human liver microsomes assessed as half life at 1 uM measured upto 60 mins by LC-MS analysis
Assay type: ADME, Microsome
# half-life at 1 µM listing for each entry below
Give just the numeric value; min need not be written.

COC1=CC(c2ccc(Cc3ccc(OC)cc3)[nH]2)=N/C1=C\NC1CCCCC1.Cl; 19.7
COC1=CC(c2ccc[nH]2)=N/C1=C\Nc1ccc(Cl)c(Cl)c1.Cl; 56.2
COC1=CC(c2ccc(Cc3ccc(OC)cc3)[nH]2)=N/C1=C\NC1CCCCCCC1.Cl; 50.8

Next compound, please.
Input line: Which half-life at 1 µM is listed for COC1=CC(c2ccc[nH]2)=N/C1=C\N[C@H]1CC[C@H](NC(=O)OC(C)(C)C)CC1 ?
Output line: 8.45

meta.source: ChEMBL document CHEMBL5506039
